All values here come from ChEMBL document CHEMBL4689842.

tested on: HEK-293T; assay: Multiplex assay against HEK293T; assay type: toxicity, cell-based; settings: human, 48 h, 10 µM, compound concentration 10 uM, replicate 2
// reported Population Pyknosed Nuclei (%) per item
readout name: Population Pyknosed Nuclei (%)

>>> df
                                   compound  study_system  numeric_readout
0  O=C(c1cc2c(cc1F)OC(c1ccc(F)cc1)(c1ccc(Cl)cc1Cl)O2)N1CCOCC1 (stereo not given)      HEK-293T               66
1  CC(C)NC(=O)N1CC[C@H](NC2=Nc3cc(F)ccc3N(CC(F)F)c3ccc(Cl)cc32)C1      HEK-293T               28
2  CCOC(=O)Nc1cc(-c2ccc(C)c(NS(C)(=O)=O)c2)nn2c(C)nnc12      HEK-293T                7
3  Cc1ccc2c(c1)c1c(n2CCc2ccc(C)nc2)CCN(C)C1 [LATREPIRDINE]      HEK-293T               55
4  CC1=C(C(=O)Nc2cc3cn[nH]c3cc2F)C(c2ccc(C(F)(F)F)cc2)CC(=O)N1 (stereo not given)      HEK-293T                8
5  C[C@]12CC[C@@H]3c4ccc(O)cc4CC[C@H]3[C@@H]1CC[C@@H]2O      HEK-293T               26
6  CN1CCN(Cc2ccc(Nc3ncc(Cl)c(Nc4ccccc4S(=O)(=O)N(C)C)n3)cc2)CC1      HEK-293T               46
7  COC(=O)C1=C(C)NC(C)=C(C(=O)OCCCN2CCC(c3ccccc3)(c3ccccc3)CC2)[C@H]1c1cccc([N+](=O)[O-])c1      HEK-293T               82
8  Cc1c[nH]c2nccc(Oc3c(F)cc(Nc4cc(Cl)nc(N)n4)cc3F)c12      HEK-293T               47
9  CC(C)OC(=O)N1CCC(Oc2ncnc3c2cnn3-c2ccc(S(C)(=O)=O)cc2F)CC1      HEK-293T               11

---

system: HEK-293T; test: Multiplex assay against HEK293T; assay type: toxicity, cell-based; conditions: human, 24 h, 10 µM, compound concentration 10 uM, replicate 1
readout name: Population Membrane Permeable-Phenotype (%)

In [3]: df
Out[3]:
                                    compound  result
 0  CC1=C(C(=O)Nc2cc3cn[nH]c3cc2F)C(c2ccc(C(F)(F)F)cc2)CC(=O)N1 (stereo not drawn)      6%
 1  O=c1cc(N2CCOCC2)oc2c(-c3cccc4c3sc3ccccc34)cccc12      0%
 2  Cl.O=C(O)c1cc(-c2ccc(C3CCNCC3)cc2)c2ccc(-c3ccc(C(F)(F)F)cc3)cc2c1      4%
 3  C=CC(=O)Nc1cccc(Oc2nc(Nc3ccc(N4CCN(C)CC4)cc3OC)ncc2Cl)c1     11%
 4  Cc1nc(N2CC[C@H](O)C2)ncc1-c1cc(C(F)(F)F)cc2[nH]ncc12     12%
 5  COC(=O)C1=C(C)NC(C)=C(C(=O)OCCCN2CCC(c3ccccc3)(c3ccccc3)CC2)[C@H]1c1cccc([N+](=O)[O-])c1     11%
 6  Cc1ccc2c(c1)c1c(n2CCc2ccc(C)nc2)CCN(C)C1 [LATREPIRDINE]      6%
 7  CC(C)Oc1ccccc1C(=O)Nc1ccccc1C(=O)Nc1cccc(S(=O)(=O)C(F)(F)F)c1      4%
 8  CNC(=O)Nc1ccc2c(c1)[C@@]1(CC2)OC(=O)N(CC(=O)N(Cc2ccc(F)cc2)[C@@H](C)C(F)(F)F)C1=O      8%
 9  CNC(=O)Nc1ccc(-c2nc(N3CC4CCC(C3)O4)c3cnn(C4CCC5(CC4)OCCO5)c3n2)cc1     25%
10  CC(C)CC(=O)Nc1[nH]nc2c1CN(C(=O)C1CCN(C)CC1)C2(C)C      4%
11  C=CC(=O)Nc1cccc(Sc2nc(Nc3ccc(N4CCN(C)CC4)cc3)ncc2Cl)c1     10%
12  CCc1ccc(OCc2ccccc2C(=O)Nc2ccc3nc(C)cc(N)c3c2)cc1.Cl      0%
13  CC(C)OC(=O)N1CCC(Oc2ncnc3c2cnn3-c2ccc(S(C)(=O)=O)cc2F)CC1      1%
14  C[C@]12CC[C@@H]3c4ccc(O)cc4CC[C@H]3[C@@H]1CC[C@@H]2O      1%
15  COc1ccccc1CN[C@H]1C2CCN(CC2)[C@H]1C(c1ccccc1)c1ccccc1      0%
16  Cc1cccc(CN2CCN(C(c3ccccc3)c3ccc(Cl)cc3)CC2)c1.Cl.Cl (stereo not drawn)      0%
17  COc1cc2ncn(-c3cc(OCc4ccccc4C(F)(F)F)c(C(N)=O)s3)c2cc1OC [GW843682X]      6%
